Field: MIC. Provide a value for each of the compounds that follow.
# Tested on: Aspergillus fumigatus
# ASSAY INFO: Antifungal activity against Aspergillus fumigatus GIMCC 3.19 after 24 hrs by two-fold serial dilution method
# Assay type: functional
# CONDITION DETAILS: GIMCC 3.19, 24 h

Prompt: Recorded MIC of COC(=O)C(NP(=O)(OCCN(C)c1cc(=O)oc2ccccc12)Oc1ccccc1)C(C)C (stereo not drawn) , please.
Completion: 64 µg/mL

Prompt: Recorded MIC of COC(=O)CNP(=O)(OCCN(C)c1cc(=O)oc2ccc(C(C)(C)C)cc12)Oc1ccccc1 (stereo not drawn) , please.
Completion: 32 µg/mL

Prompt: Recorded MIC of COC(=O)C(Cc1ccccc1)NP(=O)(OCCN(C)c1cc(=O)oc2ccccc12)Oc1ccccc1 (stereo not drawn) , please.
Completion: 128 µg/mL

Prompt: Recorded MIC of COC(=O)C(C)NP(=O)(OCCN(C)c1cc(=O)oc2c(C)cccc12)Oc1ccccc1 (stereo not drawn) , please.
Completion: 32 µg/mL

Prompt: Recorded MIC of COC(=O)C(Cc1ccccc1)NP(=O)(OCCN(C)c1cc(=O)oc2cc(C)ccc12)Oc1ccccc1 (stereo not drawn) , please.
Completion: 64 µg/mL

Prompt: Recorded MIC of COC(=O)C(Cc1ccccc1)NP(=O)(OCCN(C)c1cc(=O)oc2ccc(C)cc12)Oc1ccccc1 (stereo not drawn) , please.
Completion: 128 µg/mL

Prompt: Recorded MIC of COC(=O)C(C)NP(=O)(OCCN(C)c1cc(=O)oc2ccc(C)cc12)Oc1ccccc1 (stereo not drawn) , please.
Completion: 64 µg/mL

Prompt: Recorded MIC of COC(=O)C(NP(=O)(OCCN(C)c1cc(=O)oc2ccc(C)cc12)Oc1ccccc1)C(C)C (stereo not drawn) , please.
Completion: 128 µg/mL

Prompt: Recorded MIC of COC(=O)C(C)NP(=O)(OCCN(C)c1cc(=O)oc2ccccc12)Oc1ccccc1 (stereo not drawn) , please.
Completion: 32 µg/mL

Prompt: Recorded MIC of COC(=O)CNP(=O)(OCCN(C)c1cc(=O)oc2ccc(C)cc12)Oc1ccccc1 (stereo not drawn) , please.
Completion: 64 µg/mL

Prompt: Recorded MIC of COC(=O)CNP(=O)(OCCN(C)c1cc(=O)oc2c(C)cccc12)Oc1ccccc1 (stereo not drawn) , please.
Completion: 128 µg/mL

Prompt: Recorded MIC of COC(=O)C(C)NP(=O)(OCCN(C)c1cc(=O)oc2ccc(C(C)(C)C)cc12)Oc1ccccc1 (stereo not drawn) , please.
Completion: 64 µg/mL

Prompt: Recorded MIC of `NC(=O)OC[C@H](O)[C@@H](O)[C@H](N)C(=O)N[C@H](C(=O)O)[C@H]1O[C@@H](n2cc(CO)c(=O)[nH]c2=O)[C@H](O)[C@@H]1O` , please.
Completion: 64 µg/mL
